System: Es-2
Assay: Primary qHTS to identify gynecologic anti-cancer compounds using libraries of approved drugs and bioactive compounds (AID 1345084); also: nearly all actives have a fitted effect of over 55% in size
Conditions: Gynecologic cancer cell panel viability, ATPlite luminescence, 48 h; series mostly up to 57.5 µM
Inconclusive results are not listed. The source made the active and inactive calls. Calls follow the shape of the dose curve; as a rule, active = well fitted cell-killing curve with a large enough effect; inconclusive = small, poorly fitted or top-dose-only effect, or effect the other way; inactive = flat fitted curve, though single readings scatter.
Hi! Could you answer with just one of these? active, inactive

# count of solved cases: 3
{"columns": ["molecule", "category.label"],
 "data": [
  ["NC(=O)[C@@H](CC1CC1)[C@@H](CCC(F)(F)F)C(=O)N[C@H]1N=C(c2ccccc2)c2cccc(F)c2NC1=O", "inactive"],
  ["CC(=O)C1CCC2C3CCC4C[C@@H](O)CCC4(C)C3CCC12C (some centres undefined)", "inactive"],
  ["C/C1=C/[C@@H](C)C/C=C/[C@H]2[C@@H]3O[C@]3(C)[C@@H](C)[C@H]3[C@H](Cc4c[nH]c5ccccc45)NC(=O)[C@]32C(=O)/C=C\\C(=O)[C@@H]1O", "inactive"]
]}

Ask | Please share the test call associated with C=C1[C@@]23C(=O)O[C@H](C)[C@]24O[C@@]2(C(=C)[C@]5(C=CC(=O)OC5(C)C)CC[C@]32C)[C@H](O)[C@@]1(C)OC4=O .
Reply | inactive

Ask | Please share the test call associated with CC(=O)OC[C@]12C[C@H](O)C(C)=C[C@H]1O[C@@H]1[C@H](O)[C@@H](O)[C@@]2(C)[C@]12CO2 .
Reply | active

Ask | Please share the test call associated with COC(=O)CC1CC2(C(=O)c3c(O)cccc3C2(O)C(=O)OC)C(C)O1 (centres undefined) .
Reply | inactive

Every entry's value here was drawn from PubChem BioAssay (NCATS).
